Tested on: RWP1 cells
ASSAY METHOD TEXT: Effect of anti-FZD5 Fabs on proliferation of pancreatic cancer cell lines (percent growth inhibition)
Format: cell-based, human
MEASUREMENT CONDITIONS: Fab 10 μg/ml
READOUT LABEL: percent growth inhibition, RWP1 10 μg/ml (%)
Could you give me the number in %? Just the number is fine.

Record Fab-2907: anti-FZD5 Fab with antibody variable region Fv-2907; CDR SEQ ID NOs: 35, 36, 46, 85, 122, 159 (antibody, V domains shown) VH: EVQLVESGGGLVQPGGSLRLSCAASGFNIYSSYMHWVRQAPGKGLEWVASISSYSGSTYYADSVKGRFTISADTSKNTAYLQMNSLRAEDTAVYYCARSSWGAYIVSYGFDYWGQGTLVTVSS VL: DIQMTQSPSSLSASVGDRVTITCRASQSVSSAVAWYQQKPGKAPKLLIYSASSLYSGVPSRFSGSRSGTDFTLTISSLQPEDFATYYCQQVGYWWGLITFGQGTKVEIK . Reported percent growth inhibition, RWP1 10 μg/ml: 28.57
